Value source: ChEMBL document CHEMBL3301361

experiment: in vitro; settings: Beagle, dog, plasma
# strict inequality: fraction unbound at 5 h < 0.03 yields label 1, everything else yields label 0

Use the examples below as a reference point.
Cc1ccc(S(=O)(=O)Nc2c(C(=O)N[C@@H](C)C(C)(C)C)c(C)nn2-c2ccccc2)cc1 : label 0
Cc1nn(-c2ccccc2)c(N)c1-c1ccccc1 : label 0
O=S(=O)(Nc1ncns1)c1cc(F)c(Oc2ccc(Cl)cc2-c2ccnn2C2CNC2)cc1F : label 0

Problem: Determine whether this compound shows fraction unbound at 5 h lower than 0.03 (ties excluded): C[C@@H]1C[C@H]2[C@@H]3CCC4=CC(=O)C=C[C@]4(C)[C@@]3(Cl)[C@@H](O)C[C@]2(C)[C@@]1(OC(=O)c1ccco1)C(=O)CCl [MOMETASONE FUROATE]
Solution: label 1

Problem: Is fraction unbound at 5 h strictly under 0.03 for the entry CCS(=O)(=O)c1ccc(-c2cc(Cl)ccc2OCC(=O)O)c(Cl)c1 ?
Solution: label 1

###

assay: physchem; conditions: octan-1-ol/water, pH 7.4, LogD7.4
Binary call on logD: Satisfied from 2 upward, Not satisfied beneath that.

Cc1nc(C)c(-c2ccc([C@H]3CC[C@H](CC(=O)O)CC3)c(Cl)c2)nc1C(N)=O : Not satisfied
COCCOc1cc2ncc(C(N)=O)c(Nc3ccc(C)cc3F)c2cc1N1CCN(C)CC1 : Satisfied
Cc1ccc(C(=O)NC2CCC2)cc1-n1cnc2ccc(N3CCN(C)CC3)cc2c1=O : Satisfied
COc1ccc(-c2nc3c(NCC4CCNCC4)c(Br)cnc3[nH]2)cc1 : Not satisfied
O=C(NC[C@@H](O)CN1CCC(Oc2ccc(Cl)c(Cl)c2)CC1)c1cn2cc(F)ccc2n1 : Satisfied

Problem: Say whether Nc1ncnc2c1C(=O)N(c1ccc([C@H]3CC[C@H](CC(=O)O)CC3)cc1)CCO2 shows logD of 2 or more.
Solution: Not satisfied

Problem: Check this molecule for logD at or above 2: Nc1cccc(NC(=O)c2ccc(CNC(=O)OCc3cccnc3)cc2)c1
Solution: Not satisfied

Problem: Record COc1ccc2ncc(=O)n(CCN3CCC(NCc4cc5c(cn4)OCCO5)CC3)c2n1 ; criterion: logD no lower than 2. Met?
Solution: Not satisfied

Problem: // inclusive: logD at least 2? input: CN(C)CC(O)COc1ccc(Nc2nccc(Nc3ccccc3)n2)cc1 (centres undefined)
Solution: Not satisfied

Problem: Is reported logD greater than or equal to 2 here: Cn1cc(-c2cccc(C[C@H](NC(=O)c3cc(C(C)(C)C)nn3C)C(=O)NCC#N)c2)cn1
Solution: Satisfied

Problem: Could you please find out whether O=c1oc2ccccc2cc1-c1ccc(O)cc1 has logD that meets 2 or exceeds it?
Solution: Satisfied

Problem: Evaluate O=C(CC12CC3CC(CC(C3)C1)C2)Nc1cccc2nc(NCCNCCO)ccc12 : logD at minimum 2?
Solution: Not satisfied

Problem: Hi team, for C[C@H](CO)Nc1nc(SCc2cccc(F)c2F)nc2[nH]c(N)nc12 , is the recorded logD at or above 2?
Solution: Satisfied

Problem: Is it the case that Nc1n[nH]cc1-c1cc(C(F)(F)F)ccc1Oc1cc(F)c(S(=O)(=O)Nc2cscn2)cc1Cl has logD reaching or exceeding 2?
Solution: Satisfied

Problem: Does logD meet or surpass 2 for CC[C@@H](c1ccc(C(=O)O)c(Oc2cccc(Cl)c2)c1)N1CCC[C@H](n2cc(C)c(=O)[nH]c2=O)C1 ?
Solution: Not satisfied

Problem: Please indicate if the recorded logD for O=C(CC12CC3CC(CC(C3)C1)C2)Nc1c(Cl)ccc2nc(CN3CCN(CCO)CC3)ccc12 meets or exceeds 2.
Solution: Satisfied

Problem: Dear colleague, could you confirm whether O=c1ccnc2cc(C#Cc3ccccc3)ccn12 has logD at or above 2?
Solution: Satisfied

Problem: Could you verify whether the entry C[C@@H](Oc1cccc2ncnc(Nc3ccc(OCc4ccccn4)c(Cl)c3)c12)C(=O)N(C)C shows logD of no less than 2?
Solution: Satisfied

Problem: Kindly determine if logD recorded for COc1ccc2nc(C)cc(N3CC(CNC(=O)C4CC4)OC3=O)c2c1 (centres undefined) is above or exactly 2.
Solution: Not satisfied

Problem: Does the molecule c1cc(Nc2ccnc(Nc3cc(N4CCOCC4)cc(N4CCOCC4)c3)n2)c2cn[nH]c2c1 have recorded logD that is 2 or more?
Solution: Satisfied

Problem: State whether the measured logD reaches 2, counting equality as reaching it, for CC(C)Cn1c(=O)n(C)c(=O)c2c(S(=O)(=O)N3CC[C@@H](O)C3)c(Cc3ccccc3C(F)(F)F)sc21
Solution: Satisfied

Problem: Decide: is the reported value of logD for COc1ccc(C(=O)Nc2cc(NC(=O)c3cccc(N(C)C)c3)ccc2C)cc1OC equal to or greater than 2?
Solution: Satisfied

Problem: Form field: logD at least 2? Entry: COc1ccc(CNCc2ccc(-c3cc(C(N)=O)c(NC(N)=O)s3)cc2)cc1
Solution: Satisfied

Problem: Hi, just wondering whether O=C(O)C[C@H](O)C[C@H](O)/C=C/c1c(C2CC2)nc2ccccc2c1-c1ccc(F)cc1 shows logD of 2 or higher.
Solution: Not satisfied

Problem: Does O=C(NCC12CC3CC(CC(C3)C1)C2)c1cc(CN2CCNCC2)ccc1Cl have a reported logD of at least 2?
Solution: Not satisfied

Problem: Kindly determine if logD recorded for O=C(O)CSc1c[nH]c2ccccc12 is above or exactly 2.
Solution: Not satisfied

Problem: Kindly determine if logD recorded for O=C(Nc1nc2c(=O)[nH]cnc2s1)c1ccccc1 is above or exactly 2.
Solution: Not satisfied
